Experiment: Pharmacokinetics after i.v. administration in SD rats
Format: in vivo
Details: Sprague-Dawley, rat, plasma, iv, single dosage 20 mg/kg
Experimental: Nine SD rats were randomly divided into three groups (three rats for each group), receiving s-Cur, Cur/NCMs, and Cur/DCMs. […] Then, the curcumin concentrations in the plasma were analyzed using a liquid chromatography mass spectrometer (LCMS-2020) equipped with a Shimadzu UV-visible spectrophotometer (Columbia, MD). […]
measurement-type: AUC(0-t) (ng·h/mL)
Give bare numbers, in ng·h/mL.

For COc1cc(C=CC(=O)CC(=O)C=Cc2ccc(O)c(OC)c2)ccc1O [s-Cur] , what is its reported AUC(0-t)?
1960

====

Assay: Pharmacokinetics after i.v. administration in SD rats
Format: in vivo
Conditions: Sprague-Dawley, rat, plasma, iv, single dosage 20 mg/kg, read-out: Vz
measurement-type: Vd
Remember to put the unit after the number in your answer.

For COc1cc(C=CC(=O)CC(=O)C=Cc2ccc(O)c(OC)c2)ccc1O [s-Cur] , what is its reported Vd?
20.4 L/kg

====

Test: Pharmacokinetics after i.v. administration in SD rats
Type: in vivo
Conditions: Sprague-Dawley, rat, plasma, iv, single dosage 20 mg/kg, read-out: MRT(0–∞)
Description: Nine SD rats were randomly divided into three groups (three rats for each group), receiving s-Cur, Cur/NCMs, and Cur/DCMs. […] Then, the curcumin concentrations in the plasma were analyzed using a liquid chromatography mass spectrometer (LCMS-2020) equipped with a Shimadzu UV-visible spectrophotometer (Columbia, MD). […]
measurement-type: MRT inf (min)
One number for each entry, in min.

For COc1cc(C=CC(=O)CC(=O)C=Cc2ccc(O)c(OC)c2)ccc1O , what is its reported MRT inf?
9.6

====

Test: Pharmacokinetics after i.v. administration in SD rats
Format: in vivo
Details: Sprague-Dawley, rat, plasma, iv, i.v. 20 mg/kg, after 12 h (detection limit), read-out: plasma curcumin level
measurement-type: concentration at 12 h

For COc1cc(C=CC(=O)CC(=O)C=Cc2ccc(O)c(OC)c2)ccc1O , what is its reported concentration at 12 h?
< 1 ng/mL

====

Test: Pharmacokinetics after i.v. administration in SD rats
Assay type: in vivo
Details: Sprague-Dawley, rat, plasma, iv, single dosage 20 mg/kg, read-out: CLz (converted)
measurement-type: clearance (mL/min/kg)
Give bare numbers, in mL/min/kg.

For COc1cc(C=CC(=O)CC(=O)C=Cc2ccc(O)c(OC)c2)ccc1O , what is its reported clearance?
170

====

Assay: Pharmacokinetics after i.v. administration in SD rats
Format: in vivo
Settings: Sprague-Dawley, rat, plasma, iv, single dosage 20 mg/kg
measurement-type: Cmax (ng/mL)
One number for each entry, in ng/mL.

For COc1cc(C=CC(=O)CC(=O)C=Cc2ccc(O)c(OC)c2)ccc1O , what is its reported Cmax?
7120

====

Assay: Pharmacokinetics after i.v. administration in SD rats
Format: in vivo
Settings: Sprague-Dawley, rat, plasma, iv, i.v. 20 mg/kg, within 30 min, read-out: plasma curcumin level
measurement-type: concentration at 30 min

For COc1cc(C=CC(=O)CC(=O)C=Cc2ccc(O)c(OC)c2)ccc1O [s-Cur] , what is its reported concentration at 30 min?
< 100 ng/mL
